test system: E. coli GN5482; assay: in vitro antibacterial activity, agar plate dilution method (MIC); assay type: cell-based; settings: Escherichia coli, GN5482, 16 h, read-out: Minimum Inhibitory Concentration (MIC), *E. coli GN5482, lactamase-producing strain; 10^6 CFU/ml
This listing pairs compounds with measured MIC.

{"columns": ["compound", "MIC [µg/mL]"],
 "data": [
  ["CC(C)(O/N=C(\\C(=O)N[C@@H]1C(=O)N2C(C(=O)O)=C(CSc3nc(-c4ccc(O)cc4)cs3)CS[C@H]12)c1csc(N)n1)C(=O)O [compound 12, reference compound]", 1.56],
  ["Nc1nc(C(=NOC2CCCC2)C(=O)NC2C(=O)N3C(C(=O)O)=C(CSc4nc(C(=O)O)c(-c5ccc(O)c(O)c5)s4)CSC23)cs1 (stereo not shown)", 1.56],
  ["CC(C)(ON=C(C(=O)NC1C(=O)N2C(C(=O)O)=C(CSc3nc(-c4ccc(O)c(O)c4)c(CC(=O)O)s3)CSC12)c1csc(N)n1)C(=O)O (stereo not shown)", 1.56],
  ["CO/N=C(\\C(=O)N[C@@H]1C(=O)N2C(C(=O)O)=C(CSc3ncc(-c4ccc(O)cc4)o3)CS[C@H]12)c1csc(N)n1 [compound 23, reference compound]", 0.78],
  ["Nc1nc(C(=NOC(C(=O)O)c2ccccc2)C(=O)NC2C(=O)N3C(C(=O)O)=C(CSc4nc(C(=O)O)c(-c5ccc(O)c(O)c5)s4)CSC23)cs1 (single isomer, unassigned)", 1.56],
  ["CC(=O)Oc1ccc(-c2nc(SCC3=C(C(=O)O)N4C(=O)C(NC(=O)C(=NOC(C)(C)C(=O)O)c5csc(N)n5)C4SC3)sc2CC(=O)O)cc1OC(C)=O (stereo not shown)", 1.56],
  ["Nc1nc(/C(=N/Oc2ccccc2)C(=O)N[C@@H]2C(=O)N3C(C(=O)O)=C(CSc4nnc(-c5ccc(O)c(O)c5)o4)CS[C@H]23)cs1", 0.78],
  ["CON=C(C(=O)NC1C(=O)N2C(C(=O)O)=C(CSc3nc(-c4ccc(O)c(O)c4)cs3)CSC12)c1csc(N)n1 (stereo not shown)", 0.78],
  ["CO/N=C(\\C(=O)N[C@@H]1C(=O)N2C(C(=O)O)=C(CSc3nnc(-c4ccc(O)c(O)c4)s3)CS[C@H]12)c1csc(N)n1", 0.78],
  ["Nc1nc(/C(=N/OCc2ccccc2)C(=O)N[C@@H]2C(=O)N3C(C(=O)O)=C(CSc4nnc(-c5ccc(O)c(O)c5)s4)CS[C@H]23)cs1", 0.78],
  ["CC(=O)Oc1ccc(-c2nc(SCC3=C(C(=O)O)N4C(=O)[C@@H](NC(=O)/C(=N\\OC(C)(C)C(=O)O)c5csc(N)n5)[C@H]4SC3)sc2CC(=O)O)cc1 [compound 20, reference compound]", 6.25],
  ["CC(C)ON=C(C(=O)NC1C(=O)N2C(C(=O)O)=C(CSc3nc(-c4ccc(O)c(O)c4)cs3)CSC12)c1csc(N)n1 (stereo not shown)", 0.78],
  ["CC(C)(O/N=C(\\C(=O)N[C@@H]1C(=O)N2C(C(=O)O)=C(CSc3nc(-c4ccccc4)cs3)CS[C@H]12)c1csc(N)n1)C(=O)O [compound 11, reference compound]", 1.56],
  ["Nc1nc(/C(=N/OC(C(=O)O)c2ccc(O)c(O)c2)C(=O)N[C@@H]2C(=O)N3C(C(=O)O)=C(CSc4nnc(-c5ccc(O)c(O)c5)o4)CS[C@H]23)cs1 (stereo partly shown)", 0.78],
  ["CC(C)(O/N=C(\\C(=O)N[C@@H]1C(=O)N2C(C(=O)O)=C(CSc3nc(-c4ccccc4)c(CC(=O)O)s3)CS[C@H]12)c1csc(N)n1)C(=O)O [compound 16, reference compound]", 6.25],
  ["CO/N=C(\\C(=O)N[C@@H]1C(=O)N2C(C(=O)O)=C(CSc3ncc(-c4ccccc4)o3)CS[C@H]12)c1csc(N)n1 [compound 21, reference compound]", 0.78],
  ["CC(=O)Oc1ccc(-c2nc(SCC3=C(C(=O)O)N4C(=O)C(NC(=O)C(=NOC5(C(=O)O)CC5)c5csc(N)n5)C4SC3)sc2CC(=O)O)cc1OC(C)=O (stereo not shown)", 0.78],
  ["Nc1nc(/C(=N/OC2(C(=O)O)CC2)C(=O)N[C@@H]2C(=O)N3C(C(=O)O)=C(CSc4ncc(-c5ccc(O)c(O)c5)o4)CS[C@H]23)cs1", 1.56],
  ["CO/N=C(\\C(=O)N[C@@H]1C(=O)N2C(C(=O)O)=C(CSc3nnc(-c4ccc(O)cc4)o3)CS[C@H]12)c1csc(N)n1 [compound 2, reference compound]", 0.78],
  ["C=CCO/N=C(\\C(=O)N[C@@H]1C(=O)N2C(C(=O)O)=C(CSc3nnc(-c4ccc(O)c(O)c4)s3)CS[C@H]12)c1csc(N)n1", 0.78],
  ["CCON=C(C(=O)N[C@@H]1C(=O)N2C(C(=O)[O-])=C(CSc3nc(-c4ccc(O)c(O)c4)cs3)CS[C@H]12)c1csc(N)n1.[Na+]", 1.56],
  ["CON=C(C(=O)NC1C(=O)N2C(C(=O)O)=C(CSc3nc(-c4ccc(OC(C)=O)c(OC(C)=O)c4)cs3)CSC12)c1csc(N)n1 (stereo not shown)", 0.78]
]}
